Origin of measurements: the Human Domainome abundance scans (Beltran et al. 2025)

B1: Far upstream element-binding protein 2, residues 142 to 214; numbered along this chain, Q92945 (parent)
chain: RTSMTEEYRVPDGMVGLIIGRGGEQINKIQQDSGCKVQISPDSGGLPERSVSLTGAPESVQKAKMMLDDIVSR

Variants of: B1
Assay: abundance fitness (aPCA) (normalised: wild type 0, dead -1); higher = more abundant; growth selection in yeast, the domain comes from the species named
Conditions: Homo sapiens
Lab note: anything with abundance fitness at or over -0.06 counts as MET; the rest go in NOT MET.

Would you please look over these solved cases?
| variant_description | group_label |
| --- | --- |
| N27H | NOT MET |
| I70E | NOT MET |
| L67Y | NOT MET |

Turning to the following variant.
Query: # check: abundance fitness of A56V is greater than or equal to -0.06
Reply: NOT MET
